# assay-overview: Pharmacokinetics of ruxolitinib, single oral dose, plasma LC-MS/MS
# Assay type: in vivo, mice
# condition-set: mouse, NSG, Female, 60 mg kg−1 oral gavage
outcome-measure: Tmax (min)
Answers are plain numbers, in min.

Supply measured Tmax of N#CC[C@H](C1CCCC1)n1cc(-c2ncnc3[nH]ccc23)cn1 [Ruxolitinib, ruxolitinib] in your reply. 15

###

# System: M07e
# Parameters: species or system AML cell lines (8); Primary HTS, single concentration about 10 uM, Cell Titer Glo viability; log10 luminescence, per cent inhibition relative to cycloheximide control
# condition-set: 72 h, relative to cycloheximide control, log10 luminescence; inhibitor
Give measured M07e %inh for each item. Keep answers brief.
Answers are plain numbers, in %.

molecule: CCc1ccc(Oc2nccc(-c3c(-c4ccc(F)cc4)ncn3C3CCNCC3)n2)cc1 [SJ000573353-1, JB42215-197B1]
system: M07e
outcome-measure: M07e %inh
recorded-result: 7.09
--
molecule: N#Cc1ccc2c(-c3ccnc(NC4CC4)n3)c(-c3ccc(F)cc3)nn2c1 [SJ000573143-1, U15304/34/1]
system: M07e
outcome-measure: M07e %inh
recorded-result: 7.135
--
molecule: CC(C)Nc1ncc2cc(Oc3ccc(F)cc3F)c(=O)n(C)c2n1 [SJ000581145-1]
system: M07e
outcome-measure: M07e %inh
recorded-result: 6.769

I would be grateful if you could provide M07e %inh for each of the following entries.
1. CCOc1nccc2c1nc(-c1nonc1N)n2CC [SJ000573270-1, DW100508-082A1]
2. CNC(=O)c1ncccc1Nc1nc(Nc2cc3c(cc2OC)CCCN3C(=O)CN(C)C)nc2[nH]ccc12 [SJ000573036-1, N6938-65-1]
3. Nc1ccc(C#Cc2cncnc2Nc2ccc(OCc3cccc(F)c3)c(Cl)c2)cc1 [SJ000573041-1, U17810/18/1]
4. O=Cc1c2[nH]c3ccccc3c2cc2[nH]c3ccccc3c12 [SJ000561043-1, 6-FORMYLINDOLO [3,2-B] CARBAZOLE]

-0.5841
30.44
8.047
3.515
